# Measured target: Beta-secretase 1 (Homo sapiens)
# Sequence (P56817 whole entry): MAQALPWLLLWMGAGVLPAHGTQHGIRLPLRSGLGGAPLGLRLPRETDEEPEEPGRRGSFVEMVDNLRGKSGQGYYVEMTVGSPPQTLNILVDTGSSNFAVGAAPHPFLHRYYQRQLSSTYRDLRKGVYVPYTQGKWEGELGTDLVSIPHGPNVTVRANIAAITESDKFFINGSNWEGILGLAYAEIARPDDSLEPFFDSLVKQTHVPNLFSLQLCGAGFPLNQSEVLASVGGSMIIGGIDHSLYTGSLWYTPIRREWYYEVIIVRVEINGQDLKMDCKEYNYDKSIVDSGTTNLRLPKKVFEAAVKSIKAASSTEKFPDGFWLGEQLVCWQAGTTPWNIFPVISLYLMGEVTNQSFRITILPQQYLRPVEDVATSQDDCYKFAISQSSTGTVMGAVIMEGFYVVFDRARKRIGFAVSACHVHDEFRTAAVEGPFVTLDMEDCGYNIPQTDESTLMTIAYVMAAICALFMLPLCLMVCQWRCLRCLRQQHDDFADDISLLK
# Type: cell-based, SH-SY5Y
Kindly note that classification relies on IC50 with these boundaries: bottom bin: < 3 nM; middle bin: ≥ 3 nM and < 10 nM; top bin: ≥ 10 nM

Cc1cc(C2(c3cccc(-c4cncnc4)c3)N=C(N)c3c(F)cccc32)cc(C)n1 (centres undefined) = top bin
COc1c(C)cc(C2(c3cccc(-c4cncnc4)c3)N=C(N)c3c(F)cccc32)cc1C#N (centres undefined) = middle bin
CCn1cc([C@]2(c3cccc(C#CC4CC4)c3)N=C(N)c3c(F)cccc32)cc(C)c1=O = bottom bin

Please classify: CCn1cc(C2(c3cccc(-c4cncnc4)c3)N=C(N)c3c(F)cccc32)cc(C)c1=O (centres undefined) middle bin

Please classify: CCn1cc([C@]2(c3cccc(NC(=O)c4ccc(Cl)cn4)c3)N=C(N)c3c(F)cccc32)cc(C)c1=O bottom bin

Please classify: COc1ccc(C2(c3cccc(-c4cncnc4)c3)N=C(N)c3c(F)cccc32)cc1 (centres undefined) top bin

Please classify: COc1cc(C2(c3cccc(-c4cncnc4)c3)N=C(N)c3c(F)cccc32)ccn1 (centres undefined) top bin

Please classify: NC1=NC(c2cccc(-c3cncnc3)c2)(c2ccnc(C(F)(F)F)c2)c2cccc(F)c21 (centres undefined) top bin

###

Measured pKa, listed per entry.
# Test name: physchem
Write the number on its own, no unit after it.

Worked examples, 3 molecules total:
NC1=NC(c2ccncc2)(c2cccc(-c3cncnc3)c2)c2ccccc21 (centres undefined) = 8.4
NC1=NC(c2cccc(-c3cncnc3)c2)(c2ccnc(C(F)F)c2)c2cccc(F)c21 (racemic) = 6.8
NC1=N[C@@](c2cccc(-c3cncnc3)c2)(c2ccnc(C(F)F)c2)c2cccc(F)c21 [AZD-3839] = 7.1

Give reported pKa value for NC1=NC(c2ccnc(C(F)(F)F)c2)(c2ccc(F)c(-c3cncnc3)c2)c2cccc(F)c21 (racemic) 6.4

###

For Beta-secretase 2 (Homo sapiens, UniProt Q9Y5Z0), measured Ki is reported for the entries below.
Unit nM implied. Number only.

Worked examples, 5 compounds total:
COc1c(C)cc(C2(c3cccc(-c4cncnc4)c3)N=C(N)c3c(F)cccc32)nc1C (stereo unspecified) = 1700
NC1=N[C@@](c2cccc(-c3cncnc3)c2)(c2ccnc(C(F)F)c2)c2cccc(F)c21 [AZD-3839] = 370
NC1=N[C@@](c2cccc(-c3cncnc3)c2)(c2ccnc(C(F)F)c2)c2cc(F)cc(F)c21 = 770
Cc1cc(C2(c3cccc(-c4cncnc4)c3)N=C(N)c3c(F)cccc32)cn(C)c1=O (stereo unspecified) = 740
NC1=N[C@](c2ccncc2)(c2cccc(-c3cncnc3)c2)c2cccc(F)c21 = 790

Please find the next compound below.
Give reported Ki value for CCn1cc([C@]2(c3cccc(C#CC4CC4)c3)N=C(N)c3c(F)cccc32)cc(C)c1=O 78

###

# Test name: Fraction unbound in C57BL/6 mouse brain at 80 umol/kg, po
# Type: ADME, organism-based
Measured quantity: fraction unbound
Write the number on its own, no unit after it.

Give reported fraction unbound value for NC1=N[C@@](c2cccc(-c3cncnc3)c2)(c2ccnc(C(F)F)c2)c2cccc(F)c21 0.079

###

# Test name: in vitro
# Conditions: human, Caco-2
# Description: Apparent permeability from apical to basal side of human Caco2 cells at 10 uM after 60 mins by LC/MS analysis
Threshold-based label: Papp A→B at 1 h, 10 µM under 20 ×10⁻⁶ cm/s gives true (1), Papp A→B at 1 h, 10 µM not under 20 ×10⁻⁶ cm/s gives false (0).

Take a look at these entries with their results.
NC1=NC(c2ccncc2)(c2cccc(-c3cncnc3)c2)c2ccccc21 (stereo not given) = true (1)
N#Cc1cncc(-c2cccc(C3(c4ccnc(C(F)(F)F)c4)N=C(N)c4c(F)cccc43)c2)c1 (stereo not given) = true (1)
NC1=NC(c2ccnc(C(F)(F)F)c2)(c2ccc(F)c(-c3cncnc3)c2)c2cccc(F)c21 (racemic) = false (0)
COc1c(C)cc(C2(c3cccc(-c4cncnc4)c3)N=C(N)c3c(F)cccc32)cc1C#N (stereo not given) = false (0)

Shift focus to the following entry.
For NC1=N[C@](c2ccnc(C(F)(F)F)c2)(c2ccc(F)c(-c3cncnc3)c2)c2cccc(F)c21 , is the recorded Papp A→B at 1 h, 10 µM below the cut-off of 20 ×10⁻⁶ cm/s? false (0)

###

# Measured target: UniProt:Q12809
# Sequence (Q12809 whole entry): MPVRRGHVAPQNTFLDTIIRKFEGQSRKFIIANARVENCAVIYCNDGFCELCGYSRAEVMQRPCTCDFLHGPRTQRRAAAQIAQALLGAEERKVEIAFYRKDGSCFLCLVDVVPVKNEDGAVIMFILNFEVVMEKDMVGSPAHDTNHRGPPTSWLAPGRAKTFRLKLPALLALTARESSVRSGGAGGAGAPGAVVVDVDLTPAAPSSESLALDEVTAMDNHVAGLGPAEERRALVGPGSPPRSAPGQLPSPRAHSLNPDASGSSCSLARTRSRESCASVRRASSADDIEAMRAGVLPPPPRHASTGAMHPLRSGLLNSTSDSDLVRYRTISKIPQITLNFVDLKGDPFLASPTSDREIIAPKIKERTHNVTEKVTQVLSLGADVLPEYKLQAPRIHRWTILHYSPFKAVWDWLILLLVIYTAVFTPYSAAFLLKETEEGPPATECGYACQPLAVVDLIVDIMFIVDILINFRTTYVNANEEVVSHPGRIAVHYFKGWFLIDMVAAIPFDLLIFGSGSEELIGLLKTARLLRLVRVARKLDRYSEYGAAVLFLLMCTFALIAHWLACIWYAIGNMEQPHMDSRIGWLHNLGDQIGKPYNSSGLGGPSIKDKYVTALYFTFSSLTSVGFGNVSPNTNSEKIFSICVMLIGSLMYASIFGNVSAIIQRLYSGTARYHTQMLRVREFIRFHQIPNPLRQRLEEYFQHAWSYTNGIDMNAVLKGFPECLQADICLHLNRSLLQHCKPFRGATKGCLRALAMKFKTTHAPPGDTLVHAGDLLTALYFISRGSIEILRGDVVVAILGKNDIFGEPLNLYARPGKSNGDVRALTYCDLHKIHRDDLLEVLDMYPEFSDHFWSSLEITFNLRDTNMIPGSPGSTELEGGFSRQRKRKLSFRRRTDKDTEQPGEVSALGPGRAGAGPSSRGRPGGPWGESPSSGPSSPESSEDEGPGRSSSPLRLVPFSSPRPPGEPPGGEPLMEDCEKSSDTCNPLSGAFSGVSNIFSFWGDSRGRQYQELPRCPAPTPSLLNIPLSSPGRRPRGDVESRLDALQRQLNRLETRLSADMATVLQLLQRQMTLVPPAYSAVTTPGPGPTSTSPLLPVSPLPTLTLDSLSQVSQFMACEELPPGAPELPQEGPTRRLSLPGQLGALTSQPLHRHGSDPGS
Measured pIC50, listed per entry.
Reminder that pIC50 is minus the log10 of a molar concentration.

N#Cc1cncc(-c2cccc(C3(c4ccnc(C(F)(F)F)c4)N=C(N)c4c(F)cccc43)c2)c1 (configuration not stated) = 5.77

Please find the next compound below.
Find the measured pIC50 of NC1=NC(c2ccncc2)(c2cccc(-c3cncnc3)c2)c2ccccc21 (configuration not stated) with UniProt:Q12809 as test system. 4.80

###

Measured hepatocyte CLint, listed per entry.
# Test name: in vitro
# Conditions: rat, hepatocytes
Unit µL/min/1e6 cells implied. Number only.

NC1=N[C@@](c2cccc(-c3cncnc3)c2)(c2ccnc(C(F)F)c2)c2cccc(F)c21 [AZD-3839] = 20.9

Give reported hepatocyte CLint value for NC1=NC(c2ccncc2)(c2cccc(-c3cncnc3)c2)c2ccccc21 (configuration not stated) 11.7

Give reported hepatocyte CLint value for NC1=N[C@](c2ccnc(C(F)(F)F)c2)(c2ccc(F)c(-c3cncnc3)c2)c2cccc(F)c21 10

Give reported hepatocyte CLint value for COc1c(C)cc(C2(c3cccc(-c4cncnc4)c3)N=C(N)c3c(F)cccc32)cc1C#N (configuration not stated) 30.9

Give reported hepatocyte CLint value for NC1=NC(c2ccnc(C(F)(F)F)c2)(c2ccc(F)c(-c3cncnc3)c2)c2cccc(F)c21 (racemic) 6.9

Give reported hepatocyte CLint value for NC1=NC(c2cccc(-c3cncnc3)c2)(c2ccnc(C(F)F)c2)c2cccc(F)c21 (racemic) 27.5

Give reported hepatocyte CLint value for N#Cc1cncc(-c2cccc(C3(c4ccnc(C(F)(F)F)c4)N=C(N)c4c(F)cccc43)c2)c1 (configuration not stated) 5.2

###

# Measured target: Beta-secretase 1 (Homo sapiens)
# Type: cell-based, SH-SY5Y
Measured quantity: IC50
The answer should read as a number with its unit following.

Give reported IC50 value for Cc1cc(C2(c3cccc(-c4cncnc4)c3)N=C(N)c3c(F)cccc32)cn(C)c1=O (stereo not given) 11.4 nM

Give reported IC50 value for NC1=NC(c2ccncc2)(c2cccc(-c3cncnc3)c2)c2cccc(F)c21 (racemic) 11.4 nM

Give reported IC50 value for NC1=NC(c2ccncc2)(c2cccc(-c3cncc(F)c3)c2)c2cccc(F)c21 (stereo not given) 25.6 nM

Give reported IC50 value for CCn1cc(C2(c3cccc(-c4cncc(C#N)c4)c3)N=C(N)c3c(F)cccc32)cc(C)c1=O (stereo not given) 1.84 nM

Give reported IC50 value for NC1=NC(c2ccncc2)(c2cccc(-c3cncnc3)c2)c2ccccc21 (stereo not given) 90.3 nM

###

# Test name: in vivo
# Conditions: mouse, po
# Description: Oral bioavailability in mouse
Measured quantity: bioavailability (%)
Unit % implied. Number only.

Give reported bioavailability value for NC1=N[C@@](c2cccc(-c3cncnc3)c2)(c2ccnc(C(F)F)c2)c2cccc(F)c21 [AZD-3839] 73

###

# Test name: physchem
# Description: Lipophilicity, log D of the compound by RP-HPLC analysis
Measured quantity: logD

Worked examples, 2 compounds total:
NC1=NC(c2cccc(-c3cncnc3)c2)(c2ccnc(C(F)F)c2)c2cccc(F)c21 (racemic) = 2
NC1=N[C@@](c2cccc(-c3cncnc3)c2)(c2ccnc(C(F)F)c2)c2cccc(F)c21 [AZD-3839] = 2

Give reported logD value for NC1=NC(c2ccncc2)(c2cccc(-c3cncnc3)c2)c2ccccc21 (configuration not stated) 0.7

Give reported logD value for N#Cc1cncc(-c2cccc(C3(c4ccnc(C(F)(F)F)c4)N=C(N)c4c(F)cccc43)c2)c1 (configuration not stated) 3.7

Give reported logD value for NC1=NC(c2ccnc(C(F)(F)F)c2)(c2ccc(F)c(-c3cncnc3)c2)c2cccc(F)c21 (racemic) 3

Give reported logD value for NC1=N[C@](c2ccnc(C(F)(F)F)c2)(c2ccc(F)c(-c3cncnc3)c2)c2cccc(F)c21 3

Give reported logD value for COc1c(C)cc(C2(c3cccc(-c4cncnc4)c3)N=C(N)c3c(F)cccc32)cc1C#N (configuration not stated) 3.1

###

# Test name: in vivo
# Conditions: mouse, po
# Description: Half life in po dosed mouse
Measured quantity: half-life

Give reported half-life value for NC1=N[C@@](c2cccc(-c3cncnc3)c2)(c2ccnc(C(F)F)c2)c2cccc(F)c21 90 min

###

Measured log10(IC50), listed per entry.
# Measured target: Beta-secretase 1 (Homo sapiens)
# Assay type: cell-based, SH-SY5Y
A value of 2 here means IC50 of 100 in nM, since values are log10.

Worked examples, 4 compounds total:
N#Cc1cncc(-c2cccc(C3(c4ccnc(C(F)(F)F)c4)N=C(N)c4c(F)cccc43)c2)c1 (configuration not stated) = 1.48
CC#Cc1cncc(-c2cccc([C@@]3(c4cc(C)c(=O)n(CC)c4)N=C(N)c4c(F)cc(F)cc43)c2)c1 = -0.42
CC#Cc1cncc(-c2cccc(C3(c4ccnc(C(F)F)c4)N=C(N)c4c(F)cccc43)c2)c1 (configuration not stated) = 0.47
NC1=N[C@](c2ccncc2)(c2cccc(-c3cncnc3)c2)c2cccc(F)c21 = 0.92

Give reported log10(IC50) value for NC1=NC(c2cccc(-c3cncnc3)c2)(c2ccnc(C(F)(F)F)c2)c2ccccc21 (configuration not stated) 0.32

Give reported log10(IC50) value for NC1=N[C@@](c2cccc(-c3cncnc3)c2)(c2ccnc(C(F)F)c2)c2cc(F)cc(F)c21 0.94

Give reported log10(IC50) value for CCn1cc(C2(c3cccc(-c4cncc(F)c4)c3)N=C(N)c3c(F)cccc32)cc(C)c1=O (configuration not stated) 0.60
